assay: clinical; conditions: human, in vivo, 43 mg, Cmax
quantity.kind: Cmax (ng/mL)

[[record]]
smi = "Cn1c(=O)c2c(ncn2C)n(C)c1=O"
observed_measurement = 1060


---

assay: in vivo; conditions: female, Wistar, rat, iv, 1 mg/kg, Cmax, Serum, 1 mg/kg bolus intravenous
quantity.kind: Cmax (ng/mL)

[[record]]
compound = "CN[C@H](CC(C)C)C(=O)N[C@H]1C(=O)N[C@@H](CC(N)=O)C(=O)N[C@H]2C(=O)N[C@H]3C(=O)N[C@H](C(=O)N[C@H](C(=O)O)c4cc(O)cc(O)c4-c4cc3ccc4O)[C@H](O)c3ccc(c(Cl)c3)Oc3cc2cc(c3O[C@@H]2O[C@H](CO)[C@@H](O)[C@H](O)[C@H]2O[C@H]2C[C@](C)(N)[C@H](O)[C@H](C)O2)Oc2ccc(cc2Cl)[C@H]1O [vancomycin]"
result_unit = "ng/mL"
observed_measurement = 2600


---

assay: in vivo; settings: female, Wistar, rat, iv, 1 mg/kg, Tmax, Serum, 1 mg/kg bolus intravenous
quantity.kind: Tmax (min)

[[record]]
smi = "CN[C@H](CC(C)C)C(=O)N[C@H]1C(=O)N[C@@H](CC(N)=O)C(=O)N[C@H]2C(=O)N[C@H]3C(=O)N[C@H](C(=O)N[C@H](C(=O)O)c4cc(O)cc(O)c4-c4cc3ccc4O)[C@H](O)c3ccc(c(Cl)c3)Oc3cc2cc(c3O[C@@H]2O[C@H](CO)[C@@H](O)[C@H](O)[C@H]2O[C@H]2C[C@](C)(N)[C@H](O)[C@H](C)O2)Oc2ccc(cc2Cl)[C@H]1O"
observed_measurement = 10


---

experiment: clinical; settings: human, in vivo, AUC(0-8 h)
quantity.kind: AUC(0-t)

[[record]]
smi = "Cn1c(=O)c2c(ncn2C)n(C)c1=O"
quantity_kind = "AUC(0-t)"
observed_measurement = "84 ng·h/mL"


---

assay: clinical; details: human, in vivo, CL
quantity.kind: clearance (mL/min)

[[record]]
compound = "Cn1c(=O)c2c(ncn2C)n(C)c1=O [caffeine]"
quantity_kind = "clearance"
result_unit = "mL/min"
observed_measurement = 68.3


---

assay: in vivo; settings: female, Wistar, rat, iv, 1 mg/kg, Tmax, ISF, 1 mg/kg bolus intravenous
quantity.kind: Tmax (min)

[[record]]
compound = "CN[C@H](CC(C)C)C(=O)N[C@H]1C(=O)N[C@@H](CC(N)=O)C(=O)N[C@H]2C(=O)N[C@H]3C(=O)N[C@H](C(=O)N[C@H](C(=O)O)c4cc(O)cc(O)c4-c4cc3ccc4O)[C@H](O)c3ccc(c(Cl)c3)Oc3cc2cc(c3O[C@@H]2O[C@H](CO)[C@@H](O)[C@H](O)[C@H]2O[C@H]2C[C@](C)(N)[C@H](O)[C@H](C)O2)Oc2ccc(cc2Cl)[C@H]1O [vancomycin]"
result_unit = "min"
observed_measurement = 26.6


---

experiment: in vivo; details: female, Wistar, rat, iv, 1 mg/kg, Cmax Ratio (ISF:serum), 1 mg/kg bolus intravenous
quantity.kind: Kp

[[record]]
smi = "CN[C@H](CC(C)C)C(=O)N[C@H]1C(=O)N[C@@H](CC(N)=O)C(=O)N[C@H]2C(=O)N[C@H]3C(=O)N[C@H](C(=O)N[C@H](C(=O)O)c4cc(O)cc(O)c4-c4cc3ccc4O)[C@H](O)c3ccc(c(Cl)c3)Oc3cc2cc(c3O[C@@H]2O[C@H](CO)[C@@H](O)[C@H](O)[C@H]2O[C@H]2C[C@](C)(N)[C@H](O)[C@H](C)O2)Oc2ccc(cc2Cl)[C@H]1O"
observed_measurement = 0.9

